B1: TMEM175 (parent)
chain: ALLHQAETLQPSVWFGGREHVLMF

# Variants of: B1
# experiment_description: protein stability index of a GFP-peptide fusion (GPS, HEK-293T) (PSI 1-6); higher = more stable;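 note: lentivirally expressed fusions sorted by FACS into six bins by GFP to DsRed ratio, PSI derived from sequencing read proportions per bin multiplied by bin number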
# assay_setup: c terminus: a fixed tail appended
Label rule, in plain words: protein stability index of 2 and up is 1, under 2 is 0.

{"sequence_change": "L22F", "category": 1}
{"sequence_change": "E7N", "category": 0}
{"sequence_change": "L3V", "category": 0}
{"sequence_change": "V21L", "category": 1}
{"sequence_change": "L3K", "category": 0}
{"sequence_change": "A1T", "category": 1}
{"sequence_change": "V21A", "category": 0}
{"sequence_change": "F24M", "category": 1}
{"sequence_change": "W14S", "category": 0}
{"sequence_change": "A1R", "category": 0}
{"sequence_change": "S12V", "category": 1}
{"sequence_change": "V21P", "category": 1}
{"sequence_change": "L22H", "category": 1}
{"sequence_change": "A6T", "category": 0}
{"sequence_change": "T8C", "category": 1}
{"sequence_change": "V13L", "category": 1}
{"sequence_change": "L9G", "category": 1}
{"sequence_change": "M23Q", "category": 0}
{"sequence_change": "H20I", "category": 1}
{"sequence_change": "T8R", "category": 0}
{"sequence_change": "H20T", "category": 1}
{"sequence_change": "L22R", "category": 0}
{"sequence_change": "H4C", "category": 1}
{"sequence_change": "M23A", "category": 0}
{"sequence_change": "S12M", "category": 0}
{"sequence_change": "F24H", "category": 1}
{"sequence_change": "Q5H", "category": 1}
{"sequence_change": "M23H", "category": 1}
{"sequence_change": "L3Q", "category": 0}
{"sequence_change": "E7D", "category": 0}
{"sequence_change": "R18N", "category": 1}
{"sequence_change": "M23E", "category": 1}
{"sequence_change": "M23G", "category": 1}
{"sequence_change": "A6Y", "category": 1}
{"sequence_change": "V21Y", "category": 0}
{"sequence_change": "F15N", "category": 0}
{"sequence_change": "H20S", "category": 1}
{"sequence_change": "A1L", "category": 1}
{"sequence_change": "L9Q", "category": 1}
{"sequence_change": "W14M", "category": 1}
{"sequence_change": "F15A", "category": 0}
{"sequence_change": "V21H", "category": 1}
{"sequence_change": "M23I", "category": 1}
{"sequence_change": "F15M", "category": 0}
{"sequence_change": "L2C", "category": 1}
{"sequence_change": "L2Q", "category": 0}
{"sequence_change": "Q5N", "category": 1}
{"sequence_change": "T8F", "category": 1}
{"sequence_change": "E19S", "category": 1}
{"sequence_change": "V13D", "category": 1}
{"sequence_change": "V13H", "category": 1}
{"sequence_change": "V21K", "category": 1}
{"sequence_change": "F15Y", "category": 1}
{"sequence_change": "S12W", "category": 1}
{"sequence_change": "M23F", "category": 0}
{"sequence_change": "A1F", "category": 1}
{"sequence_change": "L3E", "category": 0}
{"sequence_change": "E7M", "category": 1}
{"sequence_change": "F24G", "category": 0}
{"sequence_change": "H4G", "category": 0}
{"sequence_change": "G16Y", "category": 1}
{"sequence_change": "H4A", "category": 0}
{"sequence_change": "P11G", "category": 0}
{"sequence_change": "H4P", "category": 0}
{"sequence_change": "L22S", "category": 1}
{"sequence_change": "F24K", "category": 1}
{"sequence_change": "A6H", "category": 1}
{"sequence_change": "S12I", "category": 1}
{"sequence_change": "W14D", "category": 0}
{"sequence_change": "G17Y", "category": 0}
{"sequence_change": "H20G", "category": 0}
{"sequence_change": "F24R", "category": 1}
{"sequence_change": "F24N", "category": 1}
{"sequence_change": "W14F", "category": 1}
{"sequence_change": "P11R", "category": 1}
{"sequence_change": "V13C", "category": 1}
{"sequence_change": "M23N", "category": 0}
{"sequence_change": "L22Y", "category": 1}
{"sequence_change": "G16P", "category": 0}
